Readings of Helicity (%) for the listed molecules
# run_description: Circular dichroism (CD) α-helicity
# Type: physicochemical
# condition_details: Table 1; CD of free peptide, 25 °C, 1 mM Hepes pH 7.4, 5% methanol
Bridge positions count the residues as written; N and C are the ends. Square brackets hold non-standard residues; d marks the D form. Peptide text beside a SMILES is read from it. R8 = C=CCCCCCC[C@@](C)(N)C(=O)O; Cba = N[C@@H](CC1CCC1)C(=O)O; S5 = C=CCCC[C@](C)(N)C(=O)O
Field: numeric (%). Do not append units.

Solved cases (4 shown):
# molecule, unit_string, Helicity (%)
rows = [
    ("CC(=O)N[C@@H](CC(C)C)C(=O)N[C@H](C(=O)N[C@@H](Cc1ccccc1)C(=O)N[C@]1(C)CCCCCCC=CCCC[C@@](C)(C(=O)N[C@@H](CO)C(=O)N[C@@H](C)C(=O)N[C@@H](C)C(N)=O)NC(=O)[C@H](CC2CCC2)NC(=O)[C@H](CC(C)C)NC(=O)[C@H](CCC(N)=O)NC(=O)[C@H](Cc2c[nH]c3ccccc23)NC(=O)[C@H](Cc2ccc(O)cc2)NC(=O)[C@H](C)NC1=O)[C@@H](C)O [Peptide E5A] (Ac-LTF[R8]AYWQL[Cba][S5]SAA-NH2; staple 4-11)", "%", 27.6),
    ("CC(=O)N[C@@H](CC(C)C)C(=O)N[C@H](C(=O)N[C@@H](Cc1ccccc1)C(=O)NC(C)(C)C(=O)N[C@@H](CCC(=O)O)C(=O)N[C@@H](Cc1ccc(O)cc1)C(=O)N[C@@H](Cc1c[nH]c2ccccc12)C(=O)N[C@@H](CCC(N)=O)C(=O)N[C@@H](CC(C)C)C(=O)N[C@@H](CC1CCC1)C(=O)NC(C)(C)C(=O)N[C@@H](CO)C(=O)N[C@@H](C)C(=O)N[C@@H](C)C(N)=O)[C@@H](C)O", "%", 35.3),
    ("CC(=O)N[C@@H](CC(C)C)C(=O)N[C@@H](C)C(=O)N[C@@H](Cc1ccccc1)C(=O)N[C@]1(C)CCCCCCC=CCCC[C@@](C)(C(=O)N[C@@H](CO)C(=O)N[C@@H](C)C(=O)N[C@@H](C)C(N)=O)NC(=O)[C@H](CC2CCC2)NC(=O)[C@H](CC(C)C)NC(=O)[C@H](CCC(N)=O)NC(=O)[C@H](Cc2c[nH]c3ccccc23)NC(=O)[C@H](Cc2ccc(O)cc2)NC(=O)[C@H](CCC(=O)O)NC1=O [Peptide T2A] (Ac-LAF[R8]EYWQL[Cba][S5]SAA-NH2; staple 4-11)", "%", 36.2),
    ("CC(=O)N[C@H](CC(C)C)C(=O)N[C@H](C(=O)N[C@@H](Cc1ccccc1)C(=O)N[C@]1(C)CCCCCCC=CCCC[C@@](C)(C(=O)N[C@@H](CO)C(=O)N[C@@H](C)C(=O)N[C@@H](C)C(N)=O)NC(=O)[C@H](CC2CCC2)NC(=O)[C@H](CC(C)C)NC(=O)[C@H](CCC(N)=O)NC(=O)[C@H](Cc2c[nH]c3ccccc23)NC(=O)[C@H](Cc2ccc(O)cc2)NC(=O)[C@H](CCC(=O)O)NC1=O)[C@@H](C)O", "%", 44.1),
]

Helicity (%) measured on CC(=O)N[C@@H](CC(C)C)C(=O)N[C@H](C(=O)N[C@H](Cc1ccccc1)C(=O)N[C@]1(C)CCCCCCC=CCCC[C@@](C)(C(=O)N[C@@H](CO)C(=O)N[C@@H](C)C(=O)N[C@@H](C)C(N)=O)NC(=O)[C@H](CC2CCC2)NC(=O)[C@H](CC(C)C)NC(=O)[C@H](CCC(N)=O)NC(=O)[C@H](Cc2c[nH]c3ccccc23)NC(=O)[C@H](Cc2ccc(O)cc2)NC(=O)[C@H](CCC(=O)O)NC1=O)[C@@H](C)O = 51.8

----------
Readings of Kd for the listed compounds
# experimental_system: human Mdm2 1–125 (Homo sapiens, UniProt Q00987)
# Construct: GST (N); His6 (internal); TEV cleavage site ENLYFQG (internal); made in house; host or cells: Escherichia coli BL21 (DE3) Rosetta T1R
# Sequence (Q00987 with tags, fused parts or gaps): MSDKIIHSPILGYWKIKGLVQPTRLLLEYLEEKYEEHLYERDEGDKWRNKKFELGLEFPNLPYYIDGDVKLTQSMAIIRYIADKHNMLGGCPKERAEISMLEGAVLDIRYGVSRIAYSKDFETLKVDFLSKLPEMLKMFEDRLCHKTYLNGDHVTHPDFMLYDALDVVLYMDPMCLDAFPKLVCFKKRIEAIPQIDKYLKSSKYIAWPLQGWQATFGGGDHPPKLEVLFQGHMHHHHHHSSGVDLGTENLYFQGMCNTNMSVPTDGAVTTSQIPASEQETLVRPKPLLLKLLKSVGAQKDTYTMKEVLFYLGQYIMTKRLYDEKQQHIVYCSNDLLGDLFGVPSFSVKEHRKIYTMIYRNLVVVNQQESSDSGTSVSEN
# run_description: Mdm2 binding assay (competitive fluorescence anisotropy/polarization)
# condition_details: Table 1; competitive fluorescence polarization; read-out: Mdm2 (nM), Mdm2 binding (Kd)
Bridge positions count the residues as written; N and C are the ends. Square brackets hold non-standard residues; d marks the D form. Peptide text beside a SMILES is read from it. R8 = C=CCCCCCC[C@@](C)(N)C(=O)O; Cba = N[C@@H](CC1CCC1)C(=O)O; S5 = C=CCCC[C@](C)(N)C(=O)O
Field: numeric (nM). Do not append units.

Kd measured on CC(=O)N[C@@H](CC(C)C)C(=O)N[C@H](C(=O)N[C@@H](Cc1ccccc1)C(=O)N[C@]1(C)CCCCCCC=CCCC[C@@](C)(C(=O)N[C@@H](CO)C(=O)N[C@@H](C)C(=O)N[C@@H](C)C(N)=O)NC(=O)[C@H](CC2CCC2)NC(=O)[C@H](C)NC(=O)[C@H](CCC(N)=O)NC(=O)[C@H](Cc2c[nH]c3ccccc23)NC(=O)[C@H](Cc2ccc(O)cc2)NC(=O)[C@H](CCC(=O)O)NC1=O)[C@@H](C)O [Peptide L9A] (Ac-LTF[R8]EYWQA[Cba][S5]SAA-NH2; staple 4-11) = 12

Kd measured on CC(=O)N[C@@H](CC(C)C)C(=O)N[C@@H](C)C(=O)N[C@@H](Cc1ccccc1)C(=O)N[C@]1(C)CCCCCCC=CCCC[C@@](C)(C(=O)N[C@@H](CO)C(=O)N[C@@H](C)C(=O)N[C@@H](C)C(N)=O)NC(=O)[C@H](CC2CCC2)NC(=O)[C@H](CC(C)C)NC(=O)[C@H](CCC(N)=O)NC(=O)[C@H](Cc2c[nH]c3ccccc23)NC(=O)[C@H](Cc2ccc(O)cc2)NC(=O)[C@H](CCC(=O)O)NC1=O [Peptide T2A] (Ac-LAF[R8]EYWQL[Cba][S5]SAA-NH2; staple 4-11) = 21.3

Kd measured on CC(=O)N[C@@H](CC(C)C)C(=O)N[C@H](C(=O)N[C@@H](Cc1ccccc1)C(=O)NC(C)(C)C(=O)N[C@@H](CCC(=O)O)C(=O)N[C@@H](Cc1ccc(O)cc1)C(=O)N[C@@H](Cc1c[nH]c2ccccc12)C(=O)N[C@@H](CCC(N)=O)C(=O)N[C@H](CC(C)C)C(=O)N[C@@H](CC1CCC1)C(=O)NC(C)(C)C(=O)N[C@@H](CO)C(=O)N[C@@H](C)C(=O)N[C@@H](C)C(N)=O)[C@@H](C)O = 88

Kd measured on CC(=O)N[C@@H](CC(C)C)C(=O)N[C@H](C(=O)N[C@@H](C)C(=O)N[C@]1(C)CCCCCCC=CCCC[C@@](C)(C(=O)N[C@@H](CO)C(=O)N[C@@H](C)C(=O)N[C@@H](C)C(N)=O)NC(=O)[C@H](CC2CCC2)NC(=O)[C@H](CC(C)C)NC(=O)[C@H](CCC(N)=O)NC(=O)[C@H](Cc2c[nH]c3ccccc23)NC(=O)[C@H](Cc2ccc(O)cc2)NC(=O)[C@H](CCC(=O)O)NC1=O)[C@@H](C)O [Peptide F3A] (Ac-LTA[R8]EYWQL[Cba][S5]SAA-NH2; staple 4-11) = 3600

Kd measured on CC(=O)N[C@@H](CC(C)C)C(=O)N[C@H](C(=O)N[C@@H](Cc1ccccc1)C(=O)N[C@]1(C)CCCCCCC=CCCC[C@@](C)(C(=O)N[C@@H](CO)C(=O)N[C@@H](C)C(=O)N[C@@H](C)C(N)=O)NC(=O)[C@H](CC2CCC2)NC(=O)[C@H](CC(C)C)NC(=O)[C@H](CCC(N)=O)NC(=O)[C@@H](Cc2c[nH]c3ccccc23)NC(=O)[C@H](Cc2ccc(O)cc2)NC(=O)[C@H](CCC(=O)O)NC1=O)[C@@H](C)O = 30

----------
# experimental_system: human Mdm2 1–125 (Homo sapiens)
# Construct: GST (N); His6 (internal); TEV cleavage site ENLYFQG (internal); made in house; host or cells: Escherichia coli BL21 (DE3) Rosetta T1R
# run_description: Mdm2 binding assay (competitive fluorescence anisotropy/polarization)
# condition_details: Table 2; competitive fluorescence polarization; read-out: Mdm2 (nM), Mdm2 binding (Kd)
Readings of Kd for the listed compounds
Field: numeric (nM). Do not append units.

Solved cases (5 shown):
# compound, experimental_system, Kd (nM)
data = [
    ("CC(=O)N[C@@H](CCCCN=[N+]=[N-])C(=O)NCCC(=O)N[C@@H](CC(C)C)C(=O)N[C@H](C(=O)N[C@@H](Cc1ccccc1)C(=O)N[C@]1(C)CCCCCCC=CCCC[C@@](C)(C(=O)N[C@@H](CO)C(=O)N[C@@H](C)C(=O)N[C@@H](C)C(N)=O)NC(=O)[C@H](CC2CCC2)NC(=O)CNC(=O)[C@H](C)NC(=O)[C@H](Cc2c[nH]c3ccccc23)NC(=O)[C@H](Cc2ccc(O)cc2)NC(=O)[C@H](CCC(=O)O)NC1=O)[C@@H](C)O [Peptide Q9G]", "human Mdm2 1–125 (Homo sapiens)", 42),
    ("CC(=O)N[C@@H](CCCCN=[N+]=[N-])C(=O)NCCC(=O)N1CCC[C@H]1C(=O)N[C@H](C(=O)N[C@@H](Cc1ccccc1)C(=O)N[C@]1(C)CCCCCCC=CCCC[C@@](C)(C(=O)N[C@@H](CO)C(=O)N[C@@H](C)C(=O)N[C@@H](C)C(N)=O)NC(=O)[C@H](CC2CCC2)NC(=O)[C@H](CCC(N)=O)NC(=O)[C@H](C)NC(=O)[C@H](Cc2c[nH]c3ccccc23)NC(=O)[C@H](Cc2ccc(O)cc2)NC(=O)[C@H](CCC(=O)O)NC1=O)[C@@H](C)O [Peptide L1P]", "human Mdm2 1–125 (Homo sapiens)", 21.9),
    ("CC(=O)N[C@@H](CCCCN=[N+]=[N-])C(=O)NCCC(=O)N[C@@H](CC(C)C)C(=O)N[C@H](C(=O)N[C@@H](Cc1ccccc1)C(=O)N[C@]1(C)CCCCCCC=CCCC[C@@](C)(C(=O)N[C@@H](CO)C(=O)N[C@@H](C)C(=O)N[C@@H](C)C(N)=O)NC(=O)[C@H](CC2CCC2)NC(=O)[C@H](CCC(N)=O)NC(=O)[C@H](C)NC(=O)[C@H](Cc2c[nH]c3ccccc23)NC(=O)[C@H](Cc2ccc(O)cc2)NC(=O)CNC1=O)[C@@H](C)O [Peptide E5G]", "human Mdm2 1–125 (Homo sapiens)", 61.8),
    ("CC(=O)N[C@@H](CCCCN=[N+]=[N-])C(=O)NCCC(=O)N[C@@H](CC(C)C)C(=O)N[C@H](C(=O)N[C@@H](Cc1ccccc1)C(=O)N[C@]1(C)CCCCCCC=CCCC[C@@](C)(C(=O)N2CCC[C@H]2C(=O)N[C@@H](C)C(=O)N[C@@H](C)C(N)=O)NC(=O)[C@H](CC2CCC2)NC(=O)[C@H](CCC(N)=O)NC(=O)[C@H](C)NC(=O)[C@H](Cc2c[nH]c3ccccc23)NC(=O)[C@H](Cc2ccc(O)cc2)NC(=O)[C@H](CCC(=O)O)NC1=O)[C@@H](C)O [Peptide S12P]", "human Mdm2 1–125 (Homo sapiens)", 45.7),
    ("CC(=O)N[C@@H](CCCCN=[N+]=[N-])C(=O)NCCC(=O)N[C@@H](CC(C)C)C(=O)N[C@H](C(=O)N[C@@H](Cc1ccccc1)C(=O)N[C@]1(C)CCCCCCC=CCCC[C@@](C)(C(=O)N[C@@H](CO)C(=O)N[C@@H](C)C(=O)N[C@@H](C)C(N)=O)NC(=O)[C@H](CC2CCC2)NC(=O)[C@H](CCC(N)=O)NC(=O)[C@H](C)N(C)C(=O)[C@H](Cc2c[nH]c3ccccc23)NC(=O)[C@H](Cc2ccc(O)cc2)NC(=O)[C@H](CCC(=O)O)NC1=O)[C@@H](C)O", "human Mdm2 1–125 (Homo sapiens)", 671),
]

Kd measured on CC(=O)N[C@@H](CCCCN=[N+]=[N-])C(=O)NCCC(=O)N[C@@H](CC(C)C)C(=O)N[C@H](C(=O)N[C@@H](Cc1ccccc1)C(=O)N[C@]1(C)CCCCCCC=CCCC[C@@](C)(C(=O)N[C@@H](CO)C(=O)N(C)[C@@H](C)C(=O)N[C@@H](C)C(N)=O)NC(=O)[C@H](CC2CCC2)NC(=O)[C@H](CCC(N)=O)NC(=O)[C@H](C)NC(=O)[C@H](Cc2c[nH]c3ccccc23)NC(=O)[C@H](Cc2ccc(O)cc2)NC(=O)[C@H](CCC(=O)O)NC1=O)[C@@H](C)O = 10

Kd measured on CC(=O)N[C@@H](CCCCN=[N+]=[N-])C(=O)NCCC(=O)N[C@@H](CC(C)C)C(=O)N[C@H](C(=O)N[C@@H](Cc1ccccc1)C(=O)N[C@]1(C)CCCCCCC=CCCC[C@@](C)(C(=O)N[C@@H](CO)C(=O)N[C@@H](C)C(=O)N[C@@H](C)C(N)=O)NC(=O)[C@H](CC2CCC2)NC(=O)[C@@H]2CCCN2C(=O)[C@H](C)NC(=O)[C@H](Cc2c[nH]c3ccccc23)NC(=O)[C@H](Cc2ccc(O)cc2)NC(=O)[C@H](CCC(=O)O)NC1=O)[C@@H](C)O [Peptide Q9P] = 77.1
